// provenance: ChEMBL document CHEMBL1795286

# System: Micrococcus luteus
# experiment-description: Antimicrobial activity against Micrococcus luteus ATCC 9341 after 18 hrs by twofold agar dilution method
# Format: functional
# settings: ATCC 9341, 18 h, read-out: MIC
The following compounds are listed with their measured MIC values.
Numeric only. Scale: µg/mL

Recorded results for 6 compounds are shown here.
smi: C[C@H](CO)[C@H]1CC[C@H]2[C@@H]3CC[C@H]4C[C@@H](NCCCNCCCCN)CC[C@]4(C)[C@H]3CC[C@]12C.Cl.Cl.Cl
unit-tag: µg/mL
MIC: 16
//
smi: C[C@H](CO)[C@H]1CC[C@H]2[C@@H]3CC[C@H]4C[C@H](NCCCNCCCCNCCCN)CC[C@]4(C)[C@H]3CC[C@]12C.Cl.Cl.Cl.Cl
unit-tag: µg/mL
MIC: 16
//
smi: C[C@H](CO)[C@H]1CC[C@H]2[C@@H]3[C@H](O)C[C@H]4C[C@@H](NCCCNCCCCN)CC[C@]4(C)[C@H]3CC[C@]12C.Cl.Cl.Cl
unit-tag: µg/mL
MIC: 16
//
smi: C[C@H](CO)[C@H]1CC[C@H]2[C@@H]3CC[C@H]4C[C@H](NCCCNCCCCN)CC[C@]4(C)[C@H]3CC[C@]12C.Cl.Cl.Cl
unit-tag: µg/mL
MIC: 8
//
smi: C[C@H](CO)[C@H]1CC[C@H]2[C@@H]3CC[C@@H]4C[C@@H](NCCCNCCCCNCCCN)CC[C@]4(C)[C@H]3CC[C@]12C.Cl.Cl.Cl.Cl
unit-tag: µg/mL
MIC: 2
//
smi: C[C@H](CO)[C@H]1CC[C@H]2[C@@H]3CC[C@@H]4C[C@H](NCCCNCCCCNCCCN)CC[C@]4(C)[C@H]3CC[C@]12C.Cl.Cl.Cl.Cl
unit-tag: µg/mL
MIC: 8

// moving on: another record for MIC
Given C[C@H](CO)[C@H]1CC[C@H]2[C@@H]3CC[C@@H]4C[C@@H](NCCCNCCCCN)CC[C@]4(C)[C@H]3CC[C@]12C.Cl.Cl.Cl , state its recorded MIC.
8
